Reference source: patent US10233177B2

target-of-assay: TRPV1 (Rattus norvegicus (Rat), UniProt O35433)
Sequence (O35433 whole entry): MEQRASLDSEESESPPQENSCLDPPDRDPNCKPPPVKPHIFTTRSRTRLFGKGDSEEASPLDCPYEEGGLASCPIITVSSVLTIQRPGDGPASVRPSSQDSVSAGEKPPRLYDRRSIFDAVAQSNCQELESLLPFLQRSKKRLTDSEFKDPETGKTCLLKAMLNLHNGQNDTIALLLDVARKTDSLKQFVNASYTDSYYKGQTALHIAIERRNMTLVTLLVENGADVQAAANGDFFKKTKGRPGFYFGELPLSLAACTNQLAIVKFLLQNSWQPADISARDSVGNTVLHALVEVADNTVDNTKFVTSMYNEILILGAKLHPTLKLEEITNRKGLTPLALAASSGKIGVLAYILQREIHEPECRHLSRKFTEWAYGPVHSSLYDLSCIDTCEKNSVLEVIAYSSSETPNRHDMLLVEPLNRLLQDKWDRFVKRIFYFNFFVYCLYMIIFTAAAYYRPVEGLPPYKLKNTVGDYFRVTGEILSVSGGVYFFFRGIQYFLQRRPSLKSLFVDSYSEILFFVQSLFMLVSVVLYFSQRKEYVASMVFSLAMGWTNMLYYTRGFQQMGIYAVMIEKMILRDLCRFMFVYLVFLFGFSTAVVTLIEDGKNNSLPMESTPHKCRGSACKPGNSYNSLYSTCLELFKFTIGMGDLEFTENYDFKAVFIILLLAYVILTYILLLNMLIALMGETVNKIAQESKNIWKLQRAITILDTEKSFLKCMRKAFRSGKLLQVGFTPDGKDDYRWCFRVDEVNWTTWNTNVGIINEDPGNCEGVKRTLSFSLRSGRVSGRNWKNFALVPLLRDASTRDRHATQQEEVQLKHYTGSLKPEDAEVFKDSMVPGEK
assay-summary: Ca2+ fluorescence measurements in cultured rat dorsal root ganglia neurons (capsaicin-induced calcium uptake)
Assay type: cell-based
test-parameters: DRG neuron; Table 1, formula IA-C; 300 nM against calcium uptake induced by 30 nM capsaicin; rat DRG neurons; read-out: % inhibition at 300 nM
measurement-kind: inhibition at 0.3 µM (%)

O=C1COc2c(cccc2NC(=O)NCc2ccc(C(F)(F)F)cc2-n2ccnc2)N1 :: 75
O=C1COc2c(cccc2NC(=O)NCc2ccc(Cl)cc2)N1 :: 68

(P) Cc1ccc(CNC(=O)Nc2cccc3[nH]c(=O)[nH]c23)c(N(C)C)c1
(Q) O=C1COc2cccc(NC(=O)NCc3ccc(C(F)(F)F)cc3)c2N1
(R) O=C(NCc1ccc(C(F)(F)F)cc1)Nc1cccc2[nH]c(=O)oc12
Please order the records by their reported inhibition at 0.3 µM, lowest number first. Please list the labels according to the requested order.
R, Q, P
(R: 19%, Q: 30%, P: 54%)

----------
target-of-assay: TRPV1 (Rattus norvegicus (Rat))
assay-summary: Ca2+ fluorescence measurements in cultured rat dorsal root ganglia neurons (capsaicin-induced calcium uptake)
Assay type: cell-based
test-parameters: DRG neuron; Table 1, formula IA-C; 300 nM against calcium uptake induced by 30 nM capsaicin; rat DRG neurons; read-out: % inhibition at 300 nM
measurement-kind: inhibition at 0.3 µM (%)

O=C(NCc1ccc(C(F)(F)F)cc1N1CCOCC1)Nc1cccc2oc(=O)[nH]c12 :: 93
CC(C)(C)c1ccc(CNC(=O)Nc2cccc3[nH]c(=O)[nH]c23)cc1 :: 98
O=C(NCc1ccc(C(F)(F)F)cc1N1CCCCC1)Nc1cccc2[nH]c(=O)oc12 :: 100

----------
target-of-assay: TRPV1 (Rattus norvegicus (Rat))
assay-summary: Ca2+ fluorescence measurements in cultured rat dorsal root ganglia neurons (capsaicin-induced calcium uptake)
Format: cell-based
test-parameters: rat DRG neurons; read-out: IC50 against capsaicin-evoked [Ca2+]i mobilization
measurement-kind: IC50 (nM)

Here is how some compounds turned out for IC50.
O=C1COc2c(cccc2NC(=O)NCc2ccc(C(F)(F)F)nc2N2CCCCC2)N1 [Example 78] :: 0.61
O=C(NCc1ccc(C(F)(F)F)cc1N1CCCC1)Nc1cccc2[nH]c(=O)[nH]c12 [Example 5] :: 1

(1) O=C1COc2c(cccc2NC(=O)NCc2ccc(C(F)(F)F)cc2N2CCCC2)N1 [Example 47]
(2) O=C(NCc1ccc(Cl)cc1N1CCCCC1)Nc1cccc2[nH]c(=O)[nH]c12 [Example 13]
Of 1 and 2 , which one carries the higher reported IC50? Answer by stating the label of the chosen item.
2

----------
target-of-assay: TRPV1 (Rattus norvegicus (Rat), UniProt O35433)
assay-summary: Ca2+ fluorescence measurements in cultured rat dorsal root ganglia neurons (capsaicin-induced calcium uptake)
Format: cell-based
test-parameters: DRG neuron; Table 1, formula IA-C; 300 nM against calcium uptake induced by 30 nM capsaicin; rat DRG neurons; read-out: % inhibition at 300 nM
measurement-kind: inhibition at 0.3 µM (%)

Recorded results for 10 compounds are shown here.
O=C(NCc1ccc(C(F)(F)F)cc1)Nc1cccc2oc(=O)[nH]c12 :: 40
Cc1ccc(CNC(=O)Nc2cccc3c2OCC(=O)N3)c(OC(C)C)n1 :: 79
O=C1COc2c(cccc2NC(=O)NCc2ccc(C(F)(F)F)cn2)N1 :: 57
O=C(NCc1ccc(Cl)cc1N1CCC(O)C1)Nc1cccc2[nH]c(=O)[nH]c12 (stereo not shown) :: 48
CN(C)CCOc1cc(C(F)(F)F)ccc1CNC(=O)Nc1cccc2c1OCC(=O)N2 :: 12
Cc1ccc(CNC(=O)Nc2cccc3[nH]c(=O)[nH]c23)c(N2CCCCC2)c1 :: 99
O=C(NCc1ccc(Cl)cc1)Nc1cccc2oc(=O)[nH]c12 :: 16
CC(C)Oc1cc(C(F)(F)F)ccc1CNC(=O)Nc1cccc2[nH]c(=O)[nH]c12 :: 100
CN(C)CCOc1cc(C(F)(F)F)ccc1CNC(=O)Nc1cccc2[nH]c(=O)[nH]c12 :: 25
O=C(NCc1ccc(Cl)nc1)Nc1cccc2[nH]c(=O)[nH]c12 :: 79

(1) O=C(NCc1ccc(C(F)(F)F)cc1N1CCCCC1)Nc1cccc2oc(=O)[nH]c12
(2) O=C(NCc1ccc(N2CCCC2)cc1)Nc1cccc2[nH]c(=O)[nH]c12
Would you kindly point out which of 1 and 2 has the smaller inhibition at 0.3 µM figure? Answer by quoting the chosen item's label.
2
(2: 54%, 1: 100%)
